The values you see were collected from ChEMBL document CHEMBL1153255.

Molecular target: Chymotrypsinogen A (Bos taurus)
Experiment: Compound was evaluated for inhibitory activity against alpha- chymotrypsin
Provide the reported I of each item.
Express the result in mM but write the number alone.

I reading for `Cc1ccc(S(=O)(=O)N[C@@H](Cc2ccccc2)C(=O)CCl)cc1` : 0.057

Kindly note the recorded I for CC(=O)C(C)OS(=O)(=O)c1ccccc1 (centres undefined) , which is 3.28

Looking up CC(=O)C(Cc1ccccc1)OS(C)(=O)=O (centres undefined) , I see its I listed as 2.31

Record CC(=O)C(Cc1ccccc1)OS(=O)(=O)c1ccc(C)cc1 (centres undefined) . Reported I: 0.096
